Where these numbers come from: paper PMC9963785

Target: TFEB-CLEAR DNA interaction (MBP-TFEB bHLH-LZ / FAM-CLEAR DNA) (Homo sapiens)
Experiment: Fluorescence anisotropy competition assay, TFEB-CLEAR DNA interaction
Measurement Label: IC50 (nM)
Please reply with the bare figure in nM and do not write the unit itself.

Ask: Find IC50 (TFEB-CLEAR DNA interaction (MBP-TFEB bHLH-LZ / FAM-CLEAR DNA) (Homo sapiens)) for the entry CC1=NN(c2ccc(C)c(C)c2)C(=O)/C1=N\Nc1cccc(-c2cccc(C(=O)O)c2)c1O [EO, Eltrombopag]
Result: 282
